Give measured IC50 for each item. Keep answers brief.
# PROTOCOL TEXT: Antitumor activity was determined by the ability to inhibit KB cell growth
# Assay type: functional, cell-based
# PARTICULARS: Homo sapiens
Answers are plain numbers, in µg/mL.

Solved cases below.
[
  {
    "COMPOUND": "Oc1c(C2OCCc3ccccc32)ccc2cccnc12 (stereo unspecified)",
    "NUMERIC READOUT": 1.3
  },
  {
    "COMPOUND": "COc1ccc(C(c2c(O)ccc3ncccc23)c2c(O)ccc3ncccc23)cc1",
    "NUMERIC READOUT": 17
  },
  {
    "COMPOUND": "COc1ccc(C(c2ccc(C(C)C)cc(=O)c2O)c2oc(CO)cc(=O)c2O)cc1 (stereo unspecified)",
    "NUMERIC READOUT": 0.5
  },
  {
    "COMPOUND": "CCOC(c1ccc(OC)cc1)c1ccc2cccnc2c1O (stereo unspecified)",
    "NUMERIC READOUT": 0.8
  }
]

Consider the additional compound presented here.
Param item = CCOC(c1ccc(OC)cc1)c1c(O)ccc2ncccc12 (stereo unspecified) ; retrieve measured IC50.
44
